Entries and their selectivity ratio values follow.
- test name: Selectivity index, ratio of CC50 for cytotoxicity against MDCK cells to EC50 for antiviral activity against Influenza A virus A/WSN/33(H1N1) infected in MDCK cells
- Type: toxicity, cell-based
- stated conditions: dog, read-out: Ratio CC50/EC50
Just the number, please.

Any idea what its selectivity ratio is? The molecule is `CCCOC(=O)[C@@H]1Cc2cc(O)c(O)cc2[C@H](Cc2ccc(O)c(O)c2)N1C=O`
9.7

Any idea what its selectivity ratio is? The molecule is `O=CN1[C@H](C(=O)Oc2ccccc2Br)Cc2cc(O)c(O)cc2[C@@H]1Cc1ccc(O)c(O)c1`
17.8

Any idea what its selectivity ratio is? The molecule is `O=CN1[C@H](C(=O)Oc2ccc(Br)cc2)Cc2cc(O)c(O)cc2[C@@H]1Cc1ccc(O)c(O)c1`
9.8

Any idea what its selectivity ratio is? The molecule is `O=CN1[C@H](C(=O)Oc2ccccc2F)Cc2cc(O)c(O)cc2[C@@H]1Cc1ccc(O)c(O)c1`
11.7

Any idea what its selectivity ratio is? The molecule is `O=CN1[C@H](C(=O)Oc2ccc(Cl)cc2Cl)Cc2cc(O)c(O)cc2[C@@H]1Cc1ccc(O)c(O)c1`
5.7

Any idea what its selectivity ratio is? The molecule is `O=CN1[C@H](C(=O)Oc2ccc(Cl)cc2)Cc2cc(O)c(O)cc2[C@@H]1Cc1ccc(O)c(O)c1`
15

Any idea what its selectivity ratio is? The molecule is `O=CN1[C@H](C(=O)Oc2cccc(F)c2)Cc2cc(O)c(O)cc2[C@@H]1Cc1ccc(O)c(O)c1`
11.8

Any idea what its selectivity ratio is? The molecule is `O=CN1[C@H](C(=O)Oc2cccc(Cl)c2)Cc2cc(O)c(O)cc2[C@@H]1Cc1ccc(O)c(O)c1`
13.8

Any idea what its selectivity ratio is? The molecule is `COc1ccc(NC(=O)[C@@H]2Cc3cc(O)c(O)cc3[C@H](Cc3ccc(O)c(O)c3)N2C=O)cc1`
8.3

Any idea what its selectivity ratio is? The molecule is `CN(Cc1ccccc1)C(=O)[C@@H]1Cc2cc(O)c(O)cc2[C@H](Cc2ccc(O)c(O)c2)N1C=O`
10.6

----------
Please consider the recorded pIC50 for Polymerase acidic protein (Influenza A virus (A/Puerto Rico/8/1934(H1N1)), UniProt P03433) in what follows.
Please note pIC50 is a logarithmic value: minus log10 of concentration in mol/L. Answer with that number alone.

Sample answers from the record:
> print(dat)
                                   molecule                              assay.target  outcome.measure  value.reported
1  CN1CCc2cc(O)c(O)cc2C1Cc1ccc(O)c(O)c1 (racemic)  Polymerase acidic protein (Influenza A virus (A/Puerto Rico/8/1934(H1N1)), UniProt P03433)            pIC50            5.73
2  O=CN1[C@H](C(=O)Oc2ccccc2)Cc2cc(O)c(O)cc2[C@@H]1Cc1ccc(O)c(O)c1  Polymerase acidic protein (Influenza A virus (A/Puerto Rico/8/1934(H1N1)), UniProt P03433)            pIC50            6.35

Give pIC50 (Polymerase acidic protein (Influenza A virus (A/Puerto Rico/8/1934(H1N1)), UniProt P03433)) of the following molecule: `O=CN1[C@H](C(=O)Oc2ccccc2F)Cc2cc(O)c(O)cc2[C@@H]1Cc1ccc(O)c(O)c1`
6.43

Give pIC50 (Polymerase acidic protein (Influenza A virus (A/Puerto Rico/8/1934(H1N1)), UniProt P03433)) of the following molecule: O=C(O[C@@H]1Cc2c(O)cc(O)cc2O[C@@H]1c1cc(O)c(O)c(O)c1)c1cc(O)c(O)c(O)c1 [EPIGALOCATECHIN GALLATE]
5.23

Give pIC50 (Polymerase acidic protein (Influenza A virus (A/Puerto Rico/8/1934(H1N1)), UniProt P03433)) of the following molecule: `COC(=O)[C@@H]1Cc2cc(O)c(O)cc2[C@H](Cc2ccc(O)c(O)c2)N1C(=O)C(F)(F)F`
6.30

Give pIC50 (Polymerase acidic protein (Influenza A virus (A/Puerto Rico/8/1934(H1N1)), UniProt P03433)) of the following molecule: `O=CN1[C@H](C(=O)Oc2ccccc2Br)Cc2cc(O)c(O)cc2[C@@H]1Cc1ccc(O)c(O)c1`
6.59

Give pIC50 (Polymerase acidic protein (Influenza A virus (A/Puerto Rico/8/1934(H1N1)), UniProt P03433)) of the following molecule: `COC(=O)[C@@H]1Cc2cc(O)c(O)cc2[C@H](Cc2ccc(O)c(O)c2)N1C(C)=O`
6.28

Give pIC50 (Polymerase acidic protein (Influenza A virus (A/Puerto Rico/8/1934(H1N1)), UniProt P03433)) of the following molecule: `COC(=O)[C@@H]1Cc2cc(O)c(O)cc2[C@H](Cc2ccc(O)c(O)c2)N1C=O`
6.17

Give pIC50 (Polymerase acidic protein (Influenza A virus (A/Puerto Rico/8/1934(H1N1)), UniProt P03433)) of the following molecule: `O=CN1[C@H](C(=O)Oc2ccccc2Cl)Cc2cc(O)c(O)cc2[C@@H]1Cc1ccc(O)c(O)c1`
6.55
